Each recorded value in this set is attributed to ChEMBL document CHEMBL3822425.

TARGET_OR_TEST_SYSTEM: serum albumin (Homo sapiens)
Sequence (P02768 whole entry): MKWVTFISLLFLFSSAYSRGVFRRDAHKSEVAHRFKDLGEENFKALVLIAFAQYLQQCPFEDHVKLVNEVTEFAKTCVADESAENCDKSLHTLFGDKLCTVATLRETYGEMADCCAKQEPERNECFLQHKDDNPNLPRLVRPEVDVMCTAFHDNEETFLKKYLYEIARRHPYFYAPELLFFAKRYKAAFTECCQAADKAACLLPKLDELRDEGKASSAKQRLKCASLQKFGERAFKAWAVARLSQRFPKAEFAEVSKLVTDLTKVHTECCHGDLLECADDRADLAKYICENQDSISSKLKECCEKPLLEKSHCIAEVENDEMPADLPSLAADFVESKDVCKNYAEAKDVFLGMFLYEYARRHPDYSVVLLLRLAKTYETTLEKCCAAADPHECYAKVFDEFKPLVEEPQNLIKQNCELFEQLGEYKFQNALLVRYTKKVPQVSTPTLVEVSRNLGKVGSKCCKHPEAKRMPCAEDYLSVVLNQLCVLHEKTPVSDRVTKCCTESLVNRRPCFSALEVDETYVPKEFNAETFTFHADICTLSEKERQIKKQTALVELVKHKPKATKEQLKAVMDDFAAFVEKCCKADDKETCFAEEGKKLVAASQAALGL
TEST_DETAILS: Binding affinity to human serum albumin assessed as half life by MS analysis
Format: ADME
ENDPOINT: half-life (min)
Numbers only, in min.

Problem: Using known records, supply half-life for C=C1C(=O)O[C@@H]2C3O[C@]3(C)CC/C=C(\C)CC[C@@H]12 (stereo partly specified)
Result: 37

====

Tested on: SW480
TEST_DETAILS: Cytotoxicity against human SW480 cells assessed as cell growth inhibition after 3 days by presto blue dye based plate reader method
Assay type: functional
CONDITION_SET: SW480, 72 h
Would you mind telling me the reported pIC50 of each entry?
Answers are plain numbers, as −log10 of the molar value.

1. CCC(=O)N1CCC[C@@H](n2nc(-c3ccc(Oc4ccccc4)cc3)c3c(N)ncnc32)C1	4.87
2. C=C1C(=O)O[C@@H]2C3O[C@]3(C)CC/C=C(\C)CC[C@@H]12 (stereo partly specified)	4.82
3. C=C1CC2(OC1=O)C(=O)Nc1c(C)ccc(C)c12 (stereo unspecified)	5.92

Problem: Using known records, supply pIC50 for `C=CC(=O)N1CCC[C@@H](n2nc(-c3ccc(Oc4ccccc4)cc3)c3c(N)ncnc32)C1`
Result: 4.59
